Values were extracted from paper PMC6030096.

Molecular target: COX-1 (Ovis aries, UniProt P05979)
Construct: purchased Cayman Chemical Co. 560131
Sequence (P05979 25-600): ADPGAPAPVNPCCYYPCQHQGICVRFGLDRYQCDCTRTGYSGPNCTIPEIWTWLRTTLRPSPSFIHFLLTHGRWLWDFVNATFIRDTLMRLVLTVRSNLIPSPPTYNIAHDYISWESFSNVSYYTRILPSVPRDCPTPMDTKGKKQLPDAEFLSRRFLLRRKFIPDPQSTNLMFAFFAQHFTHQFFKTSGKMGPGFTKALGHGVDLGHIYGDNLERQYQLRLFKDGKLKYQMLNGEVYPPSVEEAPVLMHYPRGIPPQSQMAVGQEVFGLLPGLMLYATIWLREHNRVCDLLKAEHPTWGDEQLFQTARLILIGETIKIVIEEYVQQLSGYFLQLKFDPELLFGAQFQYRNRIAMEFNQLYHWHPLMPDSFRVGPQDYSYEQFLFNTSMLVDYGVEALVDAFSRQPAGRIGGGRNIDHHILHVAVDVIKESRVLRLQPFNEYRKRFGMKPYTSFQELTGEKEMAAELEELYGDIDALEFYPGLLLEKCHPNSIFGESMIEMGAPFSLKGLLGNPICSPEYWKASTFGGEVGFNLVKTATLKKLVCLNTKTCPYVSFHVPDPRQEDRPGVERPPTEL
Test: COX-1 enzyme immunoassay (Cayman inhibitor screening kit)
Assay type: biochemical
Known IC50 of a selection of compounds
metric-name: IC50 (nM)

>  <compound>
CN1C(=O)C(=Cc2cn(C[C@H](O)Cn3c4ccccc4c(=O)c4ccccc43)c3ccccc23)C(=O)N(C)C1=O [(S)-3b]

>  <metric-name>
IC50

>  <lt-gt-eq>
=

>  <endpoint-value>
700

$$$$
>  <compound>
O=C1NC(=O)C(=Cc2cn(CCCCn3c4ccccc4c(=O)c4ccccc43)c3ccccc23)C(=O)N1 [Compound 4b]

>  <metric-name>
IC50

>  <lt-gt-eq>
>

>  <endpoint-value>
10000

$$$$
>  <compound>
CN1C(=O)C(=Cc2cn(C[C@@H](O)Cn3c4ccccc4c(=O)c4ccccc43)c3ccccc23)C(=O)N(C)C1=O [(R)-3b]

>  <metric-name>
IC50

>  <lt-gt-eq>
=

>  <endpoint-value>
1000

$$$$
>  <compound>
O=C1NC(=O)C(=Cc2cn(CCCn3c4ccccc4c(=O)c4ccccc43)c3ccccc23)C(=O)N1 [Compound 4a]

>  <metric-name>
IC50

>  <lt-gt-eq>
=

>  <endpoint-value>
30000

$$$$

* * *

Target: UniProtKB P35354
Sequence (P35354 18-604): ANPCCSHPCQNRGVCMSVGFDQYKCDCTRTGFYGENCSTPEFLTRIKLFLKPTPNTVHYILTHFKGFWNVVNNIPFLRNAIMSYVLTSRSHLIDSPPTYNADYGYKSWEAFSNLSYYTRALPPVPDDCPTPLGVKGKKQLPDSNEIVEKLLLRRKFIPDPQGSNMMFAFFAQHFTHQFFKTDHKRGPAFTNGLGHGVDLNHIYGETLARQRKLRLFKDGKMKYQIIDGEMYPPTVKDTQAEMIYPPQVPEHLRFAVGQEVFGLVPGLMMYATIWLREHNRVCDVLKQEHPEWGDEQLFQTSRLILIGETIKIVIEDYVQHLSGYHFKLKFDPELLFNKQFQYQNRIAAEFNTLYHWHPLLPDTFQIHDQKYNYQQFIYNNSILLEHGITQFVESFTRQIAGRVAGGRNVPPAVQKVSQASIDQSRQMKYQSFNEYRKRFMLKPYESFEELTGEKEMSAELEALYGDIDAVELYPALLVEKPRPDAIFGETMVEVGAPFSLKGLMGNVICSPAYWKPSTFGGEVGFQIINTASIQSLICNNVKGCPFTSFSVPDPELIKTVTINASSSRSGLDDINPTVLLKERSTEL
Experiment: COX-2 enzyme immunoassay (Cayman inhibitor screening kit)
Type: biochemical
Design: purchased Cayman Chemical Co. 560131
Details: SI = IC50 (COX-1)/ IC50 (COX-2)
Would you mind labelling by Selectivity index? At or over 10 is Yes, under is No.

>  <compound>
O=C1NC(=O)C(=Cc2cn(CCCn3c4ccccc4c(=O)c4ccccc43)c3ccccc23)C(=O)N1 [Compound 4a]

>  <assigned-category>
Yes

$$$$
>  <compound>
O=C1Nc2ccccc2C1=Cc1cn(CCCCn2c3ccccc3c(=O)c3ccccc32)c2ccccc12 [Compound 4d]

>  <assigned-category>
No

$$$$
>  <compound>
O=C1Nc2ccccc2C1=Cc1cn(CCCn2c3ccccc3c(=O)c3ccccc32)c2ccccc12 [Compound 4c]

>  <assigned-category>
Yes

$$$$
>  <compound>
O=C1Nc2ccccc2C1=Cc1cn(C[C@@H](O)Cn2c3ccccc3c(=O)c3ccccc32)c2ccccc12 [(R)-3c]

>  <assigned-category>
No

$$$$
